Assay: yeast display, Sf9 membrane polyspecificity reagent, FACS + sequencing; frameworks hold sequencing errors
MEASUREMENT KIND: polyreactivity (PSR sort gate)

The cases that follow already have their polyreactivity (PSR sort gate) on record.
[[record]]
entry_sequence = "QVQLVESGGGLVQAGGSLRLSSAASGSILPLYAMGWYRQAPGKERELVADISWSGGDTYYADSVKGRFTISRDKAKNTVYLQMNSLKPEDTAVYYCNSRLDYSTYESSPVTRKRVYWGQGTQVTVSS"
measurement_kind = "polyreactivity (PSR sort gate)"
observed_result = "low polyreactivity"

[[record]]
entry_sequence = "QVQLVESGGGLVQAGGSLRLSCAASGRIFYHYAMGWYRQAPGKERELVAASNSSGGSTHYADSVKGRFTISRDNAKNTVYLQMNSLKPEDTAVYYCAADGYWRDYSGYWDYYYIYDYWGQGTQVTVSS"
measurement_kind = "polyreactivity (PSR sort gate)"
observed_result = "low polyreactivity"

[[record]]
entry_sequence = "QVQLLESGGGLVQAGCSLRLSCAASGFIFSYAMGWYRQAPGKERQLVAAISKSGCRTYYADSVKGRFTISRDNAKNTVYLQMNSMKPEDTEVYYCAVRDLHLSNARYNFWGQGNQVTVSS"
measurement_kind = "polyreactivity (PSR sort gate)"
observed_result = "high polyreactivity"

[[record]]
entry_sequence = "QVQLVESGGGLVQAGGSLRLSCAASGLTFKRNAMGWYRQAPGKERELVAAIRYSTDSTNYADSVKGRFTISRDNAMYTVYLQMNSLKPEDTAVYYCAKDKQDYEYWGQGTQVTVSS"
measurement_kind = "polyreactivity (PSR sort gate)"
observed_result = "low polyreactivity"


(Q) polyreactivity (PSR sort gate) for `QVQLVESRGGLVQAGGSLRLISAASGSSFLSYAMGWYRQAPGKERELVAAITGSGGNTYYADSVKGRFTISRDNAKNTVYLQMNSLIPEDTAVYYCAARAPTWAGTYGYWGQGTQVTVSS` ?
(A) high polyreactivity

(Q) polyreactivity (PSR sort gate) for `QVQLVESGGGLVQAGGSLRLSCAASGRIFLVYAMGWYRQAPGKERELVAAISWRGGRTYYADSVKGRFTISRDNAKNTVYLQMNILKPEDTAVYYCAAASKYSQFEYDYWGHGTQVTVSS` ?
(A) high polyreactivity

(Q) polyreactivity (PSR sort gate) for `QVQLVESGGGLVQAGGSLRLSCAASGGTFRGYVMGWYIQAPGKERELVAAISYSGGTTYYADSVKGRFTISRDNAKNTVYLQMNSLKPEDTAVYYCNKGYRRYEDGATPGYGYWGQGTQVTVSS` ?
(A) high polyreactivity

(Q) polyreactivity (PSR sort gate) for `QVQLVESGGGLVQAGGSLRLSCAASGSTFRYYSMGWYRQAPGKERELVAVISKSGARTYYADSVKGRFTISRDNAKNTVYLQMNSLQPEETSVYYCNAVFKLDSHYAMCYWGQGTQVTVSS` ?
(A) high polyreactivity

(Q) polyreactivity (PSR sort gate) for `QVQLVGSGGGLVQAGGSLRLSCAASGRIFSSSAMGWYRQAPGKERELVASIDWSDGSTYYADSVKGRFTISRDNAKNTVYLQRNSLKPEDTAVYYCAADFVPYLIYGYWGQGTQVTVSS` ?
(A) low polyreactivity

(Q) polyreactivity (PSR sort gate) for `QVQLVESGGGLVQAGGSLRLSCAASGIIFAYYAMGWYRQAPGKERELVASITNTGSTYYADSVKGRFTISRDNAKNTVYLQMNSLKPEDTAVYYCNAVLSSNTKWRYPGDYWGQGTQVTVSS` ?
(A) low polyreactivity

(Q) polyreactivity (PSR sort gate) for `QVQLVESGGGLVQAGGSLRLSCAASGSIFIYNVMGWYRQAPGKERELVATIRGSGGSTYYADSVKGRFTISRDNAKNTVYLQMNSLKPEDTAVYYCARRDYPYQWGRAYNYWGQGTQVTVSS` ?
(A) high polyreactivity
